Reference source for all entries: patent US9562035B2

experiment: Cytotoxicity in HepG2 cells (Resazurin assay); type: cell-based; details: human, read-out: CC50 (Toxicity HepG2-4d)
metric name: CC50 at 4 days

[[record]]
chemical_structure = "Cc1ccc(C(=O)N2CCC(c3ccc(-c4cnn(C)c4)cc3)CC2)cc1NC(=O)c1ccc(NC(C)C)nc1"
metric_name = "CC50 at 4 days"
result = "> 25 µM"


----------
molecular target: hFASN enzyme (full length) (Homo sapiens); construct: 10 μL hFASN enzyme (full length, 300 ng, purified in house); made in house; experiment: Fatty Acid Synthase (FASN) Inhibition Scintillation Proximity Assay; type: biochemical; details: read-out: FASN % Effect @1E−05M
Sequence (P49327 whole entry): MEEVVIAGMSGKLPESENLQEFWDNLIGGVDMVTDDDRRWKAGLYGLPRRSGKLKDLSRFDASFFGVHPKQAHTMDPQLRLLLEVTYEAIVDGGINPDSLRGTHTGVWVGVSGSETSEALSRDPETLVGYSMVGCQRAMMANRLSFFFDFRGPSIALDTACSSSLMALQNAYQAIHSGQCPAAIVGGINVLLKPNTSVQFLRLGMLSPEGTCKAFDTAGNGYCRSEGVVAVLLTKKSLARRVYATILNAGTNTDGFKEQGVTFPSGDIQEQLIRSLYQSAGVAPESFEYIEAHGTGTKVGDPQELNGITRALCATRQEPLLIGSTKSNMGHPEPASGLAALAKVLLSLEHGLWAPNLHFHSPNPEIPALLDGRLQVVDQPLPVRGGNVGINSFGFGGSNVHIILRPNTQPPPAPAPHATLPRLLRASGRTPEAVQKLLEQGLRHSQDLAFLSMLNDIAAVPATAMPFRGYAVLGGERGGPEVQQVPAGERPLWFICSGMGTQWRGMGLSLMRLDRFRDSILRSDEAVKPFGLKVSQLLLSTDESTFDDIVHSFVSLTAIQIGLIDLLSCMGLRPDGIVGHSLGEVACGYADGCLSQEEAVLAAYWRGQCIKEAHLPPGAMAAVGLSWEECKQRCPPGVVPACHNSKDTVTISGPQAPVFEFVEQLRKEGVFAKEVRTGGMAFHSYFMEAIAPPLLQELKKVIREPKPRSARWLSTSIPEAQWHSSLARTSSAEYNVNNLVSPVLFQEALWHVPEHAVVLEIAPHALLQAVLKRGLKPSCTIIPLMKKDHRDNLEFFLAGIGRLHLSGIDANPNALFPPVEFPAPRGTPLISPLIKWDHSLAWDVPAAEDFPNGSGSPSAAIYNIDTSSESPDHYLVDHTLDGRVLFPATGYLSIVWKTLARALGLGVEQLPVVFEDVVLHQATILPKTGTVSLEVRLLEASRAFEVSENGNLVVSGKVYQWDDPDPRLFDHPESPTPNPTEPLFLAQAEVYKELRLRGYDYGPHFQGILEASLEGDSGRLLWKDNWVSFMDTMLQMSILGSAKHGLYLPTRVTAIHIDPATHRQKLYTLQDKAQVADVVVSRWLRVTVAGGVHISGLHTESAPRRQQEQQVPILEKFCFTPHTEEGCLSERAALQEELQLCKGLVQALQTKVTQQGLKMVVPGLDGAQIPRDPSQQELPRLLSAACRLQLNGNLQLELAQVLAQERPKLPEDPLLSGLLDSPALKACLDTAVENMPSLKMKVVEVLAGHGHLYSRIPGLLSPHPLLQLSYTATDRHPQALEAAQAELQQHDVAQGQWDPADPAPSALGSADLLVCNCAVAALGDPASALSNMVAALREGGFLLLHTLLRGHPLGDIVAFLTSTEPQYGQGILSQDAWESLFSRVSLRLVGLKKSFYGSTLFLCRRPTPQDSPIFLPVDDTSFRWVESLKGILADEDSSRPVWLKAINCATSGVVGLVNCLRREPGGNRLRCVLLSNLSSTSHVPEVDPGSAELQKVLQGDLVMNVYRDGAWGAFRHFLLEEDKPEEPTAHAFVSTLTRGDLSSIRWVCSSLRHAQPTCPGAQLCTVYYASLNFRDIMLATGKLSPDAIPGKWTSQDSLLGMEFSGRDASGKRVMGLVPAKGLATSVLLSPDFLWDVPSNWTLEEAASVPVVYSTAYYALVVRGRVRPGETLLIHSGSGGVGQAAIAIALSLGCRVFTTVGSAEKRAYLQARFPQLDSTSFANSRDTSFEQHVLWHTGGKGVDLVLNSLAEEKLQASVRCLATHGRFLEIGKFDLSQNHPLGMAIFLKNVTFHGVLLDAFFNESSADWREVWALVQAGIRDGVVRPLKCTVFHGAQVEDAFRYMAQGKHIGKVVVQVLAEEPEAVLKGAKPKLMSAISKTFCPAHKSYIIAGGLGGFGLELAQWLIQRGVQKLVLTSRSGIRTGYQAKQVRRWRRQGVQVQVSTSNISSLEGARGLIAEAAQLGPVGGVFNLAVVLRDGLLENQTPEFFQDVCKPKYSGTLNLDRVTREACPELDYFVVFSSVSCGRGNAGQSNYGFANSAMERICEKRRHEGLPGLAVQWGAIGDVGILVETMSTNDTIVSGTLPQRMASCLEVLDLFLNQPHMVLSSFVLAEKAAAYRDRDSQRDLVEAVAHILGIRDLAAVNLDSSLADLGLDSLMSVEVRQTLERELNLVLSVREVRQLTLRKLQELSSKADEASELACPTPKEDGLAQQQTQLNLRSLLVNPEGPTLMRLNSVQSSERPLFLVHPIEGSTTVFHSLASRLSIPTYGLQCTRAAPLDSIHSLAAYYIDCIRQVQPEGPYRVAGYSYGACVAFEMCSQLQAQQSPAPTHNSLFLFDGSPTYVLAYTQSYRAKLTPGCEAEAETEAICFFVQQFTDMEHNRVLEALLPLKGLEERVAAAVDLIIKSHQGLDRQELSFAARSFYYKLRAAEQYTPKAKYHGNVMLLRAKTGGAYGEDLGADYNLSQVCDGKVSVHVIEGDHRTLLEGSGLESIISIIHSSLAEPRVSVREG
metric name: inhibition at 10 µM (%)

[[record]]
chemical_structure = "Cc1ccc(C(=O)N2CC(c3ccc(-c4ccnn4C)cc3)C2)cc1NC(=O)c1ccc(NC(C)C)nc1"
system = "hFASN enzyme (full length) (Homo sapiens)"
units_of_measure = "%"
numeric_readout = 109

[[record]]
chemical_structure = "Cc1ccc(C(=O)N2CCC(c3ccc(-c4cnn(C)c4)cc3)CC2)cc1NC(=O)c1c(Cl)cccc1Cl"
system = "hFASN enzyme (full length) (Homo sapiens)"
units_of_measure = "%"
numeric_readout = 87

[[record]]
chemical_structure = "Cc1ccc(C(=O)N2CC(c3ccc(-c4ccncc4)cc3)C2)cc1NC(=O)c1ccc(Cl)nc1"
system = "hFASN enzyme (full length) (Homo sapiens)"
units_of_measure = "%"
numeric_readout = 106

[[record]]
chemical_structure = "COc1cc(Cl)cc(C(=O)Nc2cc(C(=O)N3CCC(c4ccc(-c5cnn(C)c5)cc4)CC3)ccc2C)c1"
system = "hFASN enzyme (full length) (Homo sapiens)"
units_of_measure = "%"
numeric_readout = 84

[[record]]
chemical_structure = "Cc1ccc(C(=O)N2CCC(c3ccc(-c4cnn(C)c4)cc3)CC2)cc1NC(=O)c1cnc(N(C)C(C)C)nc1"
system = "hFASN enzyme (full length) (Homo sapiens)"
units_of_measure = "%"
numeric_readout = 106

[[record]]
chemical_structure = "Cc1ccc(C(=O)N2CCC(c3ccc(-c4cnn(C)c4)cc3)CC2)cc1NC(=O)C1CCOCC1"
system = "hFASN enzyme (full length) (Homo sapiens)"
units_of_measure = "%"
numeric_readout = 104

[[record]]
chemical_structure = "Cc1ccc(C(=O)N2CCC(c3ccc4c(c3)CN(C)C4=O)CC2)cc1NC(=O)c1ccc(NC(C)C)nc1"
system = "hFASN enzyme (full length) (Homo sapiens)"
units_of_measure = "%"
numeric_readout = 50

